tested-on: 3',5'-cyclic-AMP phosphodiesterase 4A (Homo sapiens)
Sequence (P27815 whole entry, looked up, stated change not applied, the tested form may be a part, canonical isoform): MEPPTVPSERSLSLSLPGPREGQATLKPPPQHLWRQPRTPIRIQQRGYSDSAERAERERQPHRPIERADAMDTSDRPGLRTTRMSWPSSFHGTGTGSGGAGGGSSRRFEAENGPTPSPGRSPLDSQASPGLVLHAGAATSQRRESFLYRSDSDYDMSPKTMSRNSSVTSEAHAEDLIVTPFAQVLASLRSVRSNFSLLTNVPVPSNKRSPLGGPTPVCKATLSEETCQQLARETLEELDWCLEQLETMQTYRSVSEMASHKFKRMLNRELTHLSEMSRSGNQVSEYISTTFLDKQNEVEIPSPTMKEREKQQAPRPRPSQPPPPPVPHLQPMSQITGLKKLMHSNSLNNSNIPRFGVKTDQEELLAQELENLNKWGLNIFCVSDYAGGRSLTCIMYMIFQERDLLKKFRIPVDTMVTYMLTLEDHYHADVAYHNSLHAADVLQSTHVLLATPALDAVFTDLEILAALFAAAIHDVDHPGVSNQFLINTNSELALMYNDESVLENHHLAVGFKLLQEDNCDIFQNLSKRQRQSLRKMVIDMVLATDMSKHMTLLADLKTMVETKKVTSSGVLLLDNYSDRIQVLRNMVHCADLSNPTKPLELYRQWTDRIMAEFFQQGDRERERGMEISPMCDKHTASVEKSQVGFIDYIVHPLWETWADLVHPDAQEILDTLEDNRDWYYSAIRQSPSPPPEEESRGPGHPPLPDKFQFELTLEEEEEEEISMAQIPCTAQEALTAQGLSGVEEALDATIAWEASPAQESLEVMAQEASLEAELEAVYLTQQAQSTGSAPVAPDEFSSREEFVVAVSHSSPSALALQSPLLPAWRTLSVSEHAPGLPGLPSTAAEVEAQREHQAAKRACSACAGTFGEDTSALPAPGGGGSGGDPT
assay-protocol: Inhibitory concentration against human PDE4A isoform using a construct representing the common region of spliced variants expressed as GST-fusion protein in Sf9 cells
So basically: is IC50 under 10 nM? Then TRUE. Not under? Then FALSE.

>>> class_label("[O-][n+]1ccc(CC(c2ccc(C3(O)CCC3)cc2)c2ccc(OC(F)F)c(OC(F)F)c2)cc1 (configuration not stated)")
"TRUE"
>>> class_label("CC(C)(C(=O)O)c1cccc(-c2ccc(C(Cc3cc[n+]([O-])cc3)c3ccc(OC(F)F)c(OC(F)F)c3)cc2)c1 (configuration not stated)")
"TRUE"
>>> class_label("[O-][n+]1ccc(CC(c2ccc(COc3ccc(F)cc3)cc2)c2ccc(OC(F)F)c(OC(F)F)c2)cc1 (configuration not stated)")
"TRUE"
>>> class_label("CC(O)c1ccc(C(Cc2cc[n+]([O-])cc2)c2ccc(OC(F)F)c(OC(F)F)c2)cc1 (configuration not stated)")
"FALSE"
>>> class_label("Clc1ccc(C(Cc2ccncc2)c2ccc3c(c2)OCCO3)cc1 (configuration not stated)")
"FALSE"
>>> class_label("COc1ccc(C(Cc2ccncc2)c2ccc(Cl)cc2)cc1OC1CCCC1 (configuration not stated)")
"TRUE"
>>> class_label("CN(C)C(=O)c1ccc(C(Cc2cc[n+]([O-])cc2)c2ccc(OC(F)F)c(OC(F)F)c2)cc1 (configuration not stated)")
"TRUE"
>>> class_label("[O-][n+]1ccc(CC(c2ccc(C3(O)CC3)cc2)c2ccc(OC(F)F)c(OC(F)F)c2)cc1 (configuration not stated)")
"FALSE"
>>> class_label("Cc1ccc(C(=O)c2ccc(C(Cc3cc[n+]([O-])cc3)c3ccc(OC(F)F)c(OC(F)F)c3)cc2)nc1 (configuration not stated)")
"TRUE"
>>> class_label("CC(C)(O)c1ccc(C(Cc2cc[n+]([O-])cc2)c2ccc(OC(F)F)c(OC(F)F)c2)cc1 (configuration not stated)")
"TRUE"
>>> class_label("[O-][n+]1ccc(CC(c2ccc(C(O)(C(F)(F)F)C(F)(F)F)cc2)c2ccc(OC(F)F)c(OC(F)F)c2)cc1 (configuration not stated)")
"TRUE"
>>> class_label("FC(F)Oc1ccc(C(Cc2ccncc2)c2ccc(Cl)cc2)cc1OC(F)F (configuration not stated)")
"FALSE"

Values were extracted from ChEMBL document CHEMBL1135123.
